Source of measurements: patent US4638070A

I'd appreciate it if you could supply LD50 values for the items below.
# Experiment Notes: Acute toxicity, oral, LD50 (Litchfield and Wilcoxon)
# Test Settings: mouse, in vivo, fasted male mice, confidence limits p=95% in brackets

Exam item: Fill in the blank: the reported LD50 of CC(NCCCCc1ccc(Cl)cc1)C(O)c1ccc2c(c1)CCCS2 (stereo not shown) is ____.
Marked response: ~2100 mg/kg

Exam item: Next up: COc1ccc(OCCNC(C)C(O)c2ccc3c(c2)CCCS3)cc1 (stereo not shown)
Marked response: > 4000 mg/kg

Exam item: Entry to check: Cc1ccccc1N1CCN(C(C)C(O)c2ccc3c(c2)CCC(C)S3)CC1 (stereo not shown)
Marked response: > 4000 mg/kg

Exam item: Try COc1ccc(CCNC(C)C(O)c2ccc3c(c2)CCCS3)cc1OC (stereo not shown) next.
Marked response: 3700 mg/kg

Exam item: Another compound to look at: CC(NCCCCc1ccc(Cl)cc1)C(O)c1ccc2c(c1)CCC2 (stereo not shown)
Marked response: ~270 mg/kg

Exam item: Then this compound: CC(NCCOc1ccccc1)C(O)c1ccc2c(c1)CCC2 (stereo not shown)
Marked response: > 2000 mg/kg

Exam item: Also CC(CCCc1ccccc1)NC(C)C(O)c1ccc2c(c1)CCC2 (stereo not shown) , if possible.
Marked response: 2600 mg/kg

Exam item: Please do the same for CC(NCCCCc1ccccc1)C(O)c1ccc2c(c1)CCC2 (stereo not shown) as well.
Marked response: 800 mg/kg

Exam item: Next up: CCCCCCCCNC(C)C(O)c1ccc2c(c1)CC(C)CS2 (stereo not shown)
Marked response: 3300 mg/kg

Exam item: // same read-out, input: CC(NCCCOc1ccccc1)C(O)c1ccc2c(c1)CCCS2 (stereo not shown)
Marked response: > 4000 mg/kg

Exam item: Can you check CC(NCCOc1ccccc1)C(O)c1ccc2c(c1)CCCCS2 (stereo not shown) next?
Marked response: > 4000 mg/kg

Exam item: Next compound up: CC(NCCCCc1ccccc1)C(O)c1ccc2c(c1)CCCS2 (stereo not shown)
Marked response: > 4000 mg/kg

Exam item: One more compound: CC(NCCCCOc1ccccc1)C(O)c1ccc2c(c1)CCCS2 (stereo not shown)
Marked response: > 4000 mg/kg

Exam item: // next record CC(NCCOc1ccc(C(C)(C)C)cc1)C(O)c1ccc2c(c1)CCCS2 (stereo not shown)
Marked response: > 4000 mg/kg

Exam item: Note, next up: CC(NCCCc1ccc(Cl)cc1)C(O)c1ccc2c(c1)CCCS2 (stereo not shown)
Marked response: 725 mg/kg

Exam item: Cc1ccc(CCCCNC(C)C(O)c2ccc3c(c2)CCCS3)cc1 (stereo not shown) , same question.
Marked response: ~4000 mg/kg

Exam item: Try this compound next: CC(NCCCc1ccccc1)C(O)c1ccc2c(c1)CCC2 (stereo not shown)
Marked response: 3800 mg/kg

Exam item: Entry to check: CCCCSCCCNC(C)C(O)c1ccc2c(c1)CCC2 (stereo not shown)
Marked response: 870 mg/kg

Exam item: Also check CC(NCCOc1ccc2c(c1)CCC2)C(O)c1ccc2c(c1)CCCS2 (stereo not shown)
Marked response: > 4000 mg/kg

Exam item: Next compound up: COC(=O)CCCCCCCCCCNC(C)C(O)c1ccc2c(c1)CCCS2 (stereo not shown)
Marked response: > 4000 mg/kg

Exam item: One more compound: CC(NCCCCSc1ccccc1)C(O)c1ccc2c(c1)CCS2 (stereo not shown)
Marked response: > 4000 mg/kg

Exam item: Try CCC(NCCCCc1ccccc1)C(O)c1ccc2c(c1)CCCS2 (stereo not shown) next.
Marked response: > 4000 mg/kg

Exam item: How about CCCCCCCCNC(CC)C(O)c1ccc2c(c1)CCS2 (stereo not shown) ?
Marked response: 1800 mg/kg

Exam item: Next: CC1Cc2cc(C(O)C(C)NCCOc3ccccc3)ccc2S1 (stereo not shown)
Marked response: ~4000 mg/kg

Exam item: Now consider COC(=O)c1ccc(OCCNC(C)C(O)c2ccc3c(c2)CCCS3)cc1 (stereo not shown) and answer again.
Marked response: > 2000 mg/kg

Exam item: CC1Cc2cc(C(O)C(C)NCCCC(=O)c3ccc(F)cc3)ccc2O1 (stereo not shown) , same question.
Marked response: ~360 mg/kg

Exam item: Okay, and CC(NCCCN1CCCC1)C(O)c1ccc2c(c1)CCCS2 (stereo not shown) ?
Marked response: 1120 mg/kg

Exam item: Lookup CC(NCCCC(=O)c1ccc(F)cc1)C(O)c1ccc2c(c1)CCS2 (stereo not shown)
Marked response: ~700 mg/kg
